System: E18 rat cortical neuron-glia co-culture
Assay: myelination (MBP fiber length per Olig2+ nucleus), % of 1 µM DAPT response (DMSO = 0) (% of DAPT); higher = more myelination, active = 50 or more
Conditions: 5 µM; treatment time: 8 days (DIV5-DIV13)
Structures can show the parent of a compound that is named as a salt.
The label depends only on myelination: Fulfilled if it is at least -10, Not fulfilled if it is smaller.

Some solved cases for reference:
> print(dat)
                                   compound  class.assignment
1  CC(C)OC(=O)CCC/C=C\C[C@@H]1[C@@H](CC[C@@H](O)CCc2ccccc2)[C@H](O)C[C@@H]1O         Fulfilled
2  CN(C)C(=O)C(CCN1CCC(O)(c2ccc(Cl)cc2)CC1)(c1ccccc1)c1ccccc1 [Loperamide]     Not fulfilled
3  CC(=O)NS(=O)(=O)c1ccc(N)cc1 [Sulfacetamide]         Fulfilled
4  CN1C(C(=O)Nc2ccccn2)=C(O)c2ccccc2S1(=O)=O         Fulfilled
5  O=C1c2c(O)cc(O)cc2O[C@H](c2ccc(O)c(O)c2)[C@H]1O         Fulfilled
6         CCN(CC)CCOC(=O)C1(C2CCCCC2)CCCCC1     Not fulfilled
7  O=C(O)c1cc(=O)c2c(OCC(O)COc3cccc4oc(C(=O)O)cc(=O)c34)cccc2o1 [Cromolyn Sodium]     Not fulfilled
8  Nc1nc(=O)c2nc(CNc3ccc(C(=O)N[C@@H](CCC(=O)O)C(=O)O)cc3)cnc2[nH]1     Not fulfilled

Reported myelination reaches at least -10 for CCN1CCN(c2cc3c(cc2F)c(=O)c(C(=O)O)cn3C2CC2)CC1 ? Not fulfilled

Entry C[C@]12C=CC(=O)C=C1CC[C@@H]1[C@@H]2[C@@H](O)C[C@@]2(C)[C@H]1CC[C@]2(O)C(=O)CO : is its myelination no less than -10? Fulfilled

Please indicate if the recorded myelination for Cc1ccc(NC(=O)c2ccc(CN3CCN(C)CC3)cc2)cc1Nc1nccc(-c2cccnc2)n1 [Imatinib mesylate] meets or exceeds -10. Fulfilled

Does COC(=O)[C@H](c1ccccc1Cl)N1CCc2sccc2C1 have a reported myelination of at least -10? Fulfilled

Test whether the compound C[C@@H]1C[C@H]2[C@@H]3C[C@H](F)C4=CC(=O)C=C[C@]4(C)[C@@]3(F)[C@@H](O)C[C@]2(C)[C@@]1(O)C(=O)SCF records myelination of -10 or higher. Not fulfilled

myelination >= -10 for C=CC1=C(C(=O)O)N2C(=O)[C@@H](NC(=O)/C(=N\O)c3csc(N)n3)[C@H]2SC1 ? Fulfilled

# bool: myelination of CN(C)CCC(c1ccc(Br)cc1)c1ccccn1 (configuration not stated) >= -10 Not fulfilled

myelination >= -10 for COc1c(N2CCNC(C)C2)c(F)cc2c(=O)c(C(=O)O)cn(C3CC3)c12 (configuration not stated) ? Not fulfilled

====

Test system: E18 rat cortical neuron-glia co-culture
Test: fiber score / MBP score (myelination specific beyond OL differentiation) (ratio); higher = more myelination-specific MBP alignment
Conditions: 1 µM; treatment time: 8 days (DIV5-DIV13)
Reported Property: fiber score / MBP score
Answers are plain numbers.

Molecule	Numeric Value
C=CCc1ccc(O)c(-c2ccc(O)c(CC=C)c2)c1	0.744
CN1CCC(=C2c3ccccc3CCc3sccc32)CC1	0.579
O=c1[nH]cc(F)c(=O)[nH]1	1.24
CN/C(=N\CCSCc1nc[nH]c1C)NC#N	0.731
O=C1c2c(O)cc(O)cc2OC(c2ccc(O)c(O)c2)C1O (stereo not given)	0.697

Could you report fiber score / MBP score for every entry in the following list?
1. C[C@@H]1O[C@@H](OC[C@H]2O[C@@H](Oc3c(-c4ccc(O)c(O)c4)oc4cc(O)cc(O)c4c3=O)[C@H](O)[C@@H](O)[C@@H]2O)[C@H](O)[C@H](O)[C@H]1O
2. Cc1cccc(C)c1OCC(C)N (stereo not given)
3. CC(C)NCC(O)COc1ccc(CCOCC2CC2)cc1 (stereo not given)

1. 0.757
2. 0.887
3. 0.636

====

Tested on: E18 rat cortical neuron-glia co-culture
Experiment: myelination (MBP fiber length per Olig2+ nucleus), % of 1 µM DAPT response (DMSO = 0) (% of DAPT); higher = more myelination, active = 50 or more
Conditions: 1 µM; treatment time: 8 days (DIV5-DIV13)
Reported Property: myelination
Numbers only.

> print(dat)
                                   compound                            system.tested  reported.property  numeric.value
1                CCN(CC)CCOC(=O)c1ccc(N)cc1  E18 rat cortical neuron-glia co-culture        myelination           6.68
2  CC(COc1ccccc1Cc1ccccc1)N1CCCCC1 (stereo not drawn)  E18 rat cortical neuron-glia co-culture        myelination          -8.06
3       Cc1cc2c(s1)Nc1ccccc1N=C2N1CCN(C)CC1  E18 rat cortical neuron-glia co-culture        myelination         -0.209

Batch request: myelination per item, same order as input.
1. OCCN(CCO)c1nc(N2CCCCC2)c2nc(N(CCO)CCO)nc(N3CCCCC3)c2n1
2. C[C@H]1C[C@H]2[C@@H]3CCC4=CC(=O)C=C[C@]4(C)[C@@]3(F)[C@@H](O)C[C@]2(C)[C@@]1(O)C(=O)CCl

1: 3.14; 2: 7.06

Hi team, please reply with myelination for each item in this list.
1. C#C[C@]1(O)CC[C@H]2[C@@H]3CCC4=Cc5oncc5C[C@]4(C)[C@H]3CC[C@@]21C
2. C[C@H](CCC(=O)O)[C@H]1CC[C@H]2[C@@H]3C(=O)C[C@@H]4CC(=O)CC[C@]4(C)[C@H]3CC(=O)[C@]12C [Dehydrocholic Acid]
3. C=CCc1ccc(O)c(-c2ccc(O)c(CC=C)c2)c1

1: -20.4; 2: -18.3; 3: -2.87

====

Test system: E18 rat cortical neuron-glia co-culture
Experiment: myelination (MBP fiber length per Olig2+ nucleus), % of 1 µM DAPT response (DMSO = 0) (% of DAPT); higher = more myelination, active = 50 or more
Conditions: 1 µM; treatment time: 8 days (DIV5-DIV13)
Classify as follows. Reported myelination greater than or equal to -7: criterion met. Reported myelination below: criterion not met.

// below: answered molecules
> print(dat)
                                   molecule                            system.tested   class.assignment
1       COc1cc(OC)c(C(=O)CCCN2CCCC2)c(OC)c1  E18 rat cortical neuron-glia co-culture  criterion not met
2                CCC1(c2ccccc2)C(=O)NCNC1=O  E18 rat cortical neuron-glia co-culture      criterion met
3  CC1=C(C/C=C(\C)CCC[C@H](C)CCC[C@H](C)CCCC(C)C)C(=O)c2ccccc2C1=O  E18 rat cortical neuron-glia co-culture      criterion met
4  C[C@H](CCC(=O)O)[C@H]1CC[C@H]2[C@@H]3[C@H](O)C[C@@H]4C[C@H](O)CC[C@]4(C)[C@H]3CC[C@]12C  E18 rat cortical neuron-glia co-culture  criterion not met
5  CCc1ccc(CCOc2ccc(CC3SC(=O)NC3=O)cc2)nc1 (centres undefined)  E18 rat cortical neuron-glia co-culture      criterion met
6                                   N=C(N)N  E18 rat cortical neuron-glia co-culture  criterion not met
7  COc1ccc2c(c1)c(CC(=O)O)c(C)n2C(=O)c1ccc(Cl)cc1  E18 rat cortical neuron-glia co-culture  criterion not met
8   OCCN1C[C@H](O)[C@@H](O)[C@H](O)[C@H]1CO  E18 rat cortical neuron-glia co-culture  criterion not met

Switching to the query record.
Is it the case that CCCCNC(=O)NS(=O)(=O)c1ccc(C)cc1 [Tolbutamide] has myelination reaching or exceeding -7? criterion met

====

System: E18 rat cortical neuron-glia co-culture
Assay: fiber score / MBP score (myelination specific beyond OL differentiation) (ratio); higher = more myelination-specific MBP alignment
Conditions: 1 µM; treatment time: 8 days (DIV5-DIV13)
Reported Property: fiber score / MBP score
Answers are plain numbers.

Compound	Numeric Value
c1ccc(CC2=NCCN2)cc1 [Tolazoline]	0.396

Okay, here is my list. What is fiber score / MBP score for each of these?
1. CCC(C)(C)C(=O)O[C@H]1C[C@@H](C)C=C2C=C[C@H](C)[C@H](CC[C@@H]3C[C@@H](O)CC(=O)O3)[C@H]21 [Simvastatin]
2. CN1CCC[C@H]1c1cccnc1 [Nicotine]
3. CC/C(=C(\c1ccccc1)c1ccc(OCCN(C)C)cc1)c1ccccc1 [Tamoxifen]
4. CCCCC(=O)O[C@H]1CC[C@H]2[C@@H]3CCc4cc(O)ccc4[C@H]3CC[C@]12C [Estradiol valerate]

[1.17, 0.761, 0.507, 1.07]

Please state, for each entry, its recorded fiber score / MBP score.
1. COc1ccc(-c2oc3c(CC=C(C)C)c(O[C@@H]4O[C@H](CO)[C@@H](O)[C@H](O)[C@H]4O)cc(O)c3c(=O)c2O[C@@H]2O[C@@H](C)[C@H](O)[C@@H](O)[C@H]2O)cc1 [Icariin]
2. CC(N/C(=N\C#N)Nc1ccncc1)C(C)(C)C (configuration not stated) [Pinacidil]
3. C[C@](N)(Cc1ccc(O)c(O)c1)C(=O)O [Methyldopa]
4. CN(C)CCC=C1c2ccccc2CCc2ccccc21 [Amitriptyline]
5. CCN1CCN(C(=O)N[C@@H](C(=O)N[C@@H]2C(=O)N3[C@@H]2SC(C)(C)[C@@H]3C(=O)O)c2ccccc2)C(=O)C1=O [Piperacillin]
6. Cc1onc(-c2ccccc2)c1-c1ccc(S(N)(=O)=O)cc1 [Valdecoxib]
7. NC1CCN(c2cccc(Cl)n2)CC1

[0.673, 0.981, 1.28, 0.785, 0.703, 0.873, 1.09]
